Entries and their melting point values follow.

Completed entries (count: 2):
| Compound | melting point |
| --- | --- |
| COc1ccc([N+](=O)[O-])c2ccccc12 | 81 to 85 °C |
| CC(=O)NC(C(=O)O)c1ccccc1 (stereo unspecified) | 197 to 201 °C |

Switching to the query record.
In: Record request: melting point value, item O=C(Nc1ccccc1CCCCc1ccccc1NC(=O)c1ccccc1)c1ccccc1
Out: 210 to 211 °C

* * *

Entries and their melting point values follow.

Completed entries (count: 10):
| Compound | Property Label | Result |
| --- | --- | --- |
| O=CC(F)(F)C(F)(F)C(F)(F)C(F)(F)C(F)(F)C(F)(F)C(F)(F)C(F)(F)C(F)(F)C(F)(F)F | melting point | 70 to 72 °C |
| O=S1(=O)c2cccc3cccc(c23)N1CCCCCl | melting point | 38 to 40 °C |
| O=Cc1cc(Br)cc2c1OCC2 | melting point | 94 to 95 °C |
| Nc1ccc2c(c1)C(=O)c1ccccc1-2 | melting point | 152 to 157 °C |
| O=[N+]([O-])c1ccc(S(=O)(=O)N2CCCC2)cc1 | melting point | 151 to 153 °C |
| O=C1NN(c2ccccc2)C(=O)C1=C1SC=C(c2ccccc2)S1 | melting point | 288 to 290 °C |
| CCCSc1sc(C(=O)OCC)c2c1C(=O)CCC2 | melting point | 136 to 139 °C |
| OCC(F)(F)C(F)(F)C(F)(F)C(F)(F)C(F)(F)C(F)(F)C(F)(F)C(F)(F)C(F)(F)C(F)F | melting point | 95 to 97 °C |
| Clc1cccc(CBr)c1Cl | melting point | 29 to 32 °C |
| O=C(O)C(c1ccccc1)C1CCCCC1 (stereo not drawn) | melting point | 148 to 151 °C |

Switching to the query record.
In: Record request: melting point value, item CNCc1ccc(-c2ccsc2)cc1
Out: 68 to 69 °C

* * *

Entries and their melting point values follow.

Completed entries (count: 5):
| Compound | Property Label | Result |
| --- | --- | --- |
| CC1c2ccccc2C(=O)C1c1ccccc1 (configuration not stated) | melting point | 84 to 85.5 °C |
| NC(=S)c1ccccc1N | melting point | 120 to 122 °C |
| CSc1nc(N)c(C#N)s1 | melting point | 207 to 210 °C |
| CC(C)(C)c1cc(C(=Nc2ccccc2)Nc2ccccc2)cc(C(C)(C)C)c1O | melting point | 130 to 131 °C |
| O=C(O)c1ccc(C(=O)O)c(OC(F)(F)F)c1 | melting point | 270 to 272 °C |

In: Record request: melting point value, item O=C1CCCCCC1c1ccccc1 (configuration not stated)
Out: 21 to 23 °C

In: Record request: melting point value, item COc1ccc(SC)cc1
Out: 22 to 23 °C

In: Record request: melting point value, item CSc1ccc(C(F)(F)F)cc1NN
Out: 86 to 88 °C

* * *

Entries and their melting point values follow.

In: Record request: melting point value, item CC(Oc1ccc(OC(F)(F)F)cc1)C(=O)O (centres undefined)
Out: 76 to 78 °C

* * *

Entries and their melting point values follow.

| Compound | melting point |
| --- | --- |
| COC(=O)c1ccc([N+](=O)[O-])cc1Cl | 77 to 78 °C |
| Cn1ncc(N2CCOCC2)c(Cl)c1=O | 131 to 133 °C |
| CC(=O)Nc1ccccc1C#Cc1ccccc1 | 118 to 119 °C |
| CC1(C)C=C(C(N)=O)C(C)(C)N1O | 198 to 200 °C |

In: Record request: melting point value, item CCCCOc1ccc(-c2nnc3sc(/C=C/c4ccccc4)nn23)cc1
Out: 79 to 81 °C

In: Record request: melting point value, item Cc1nnc2sc(SCc3ccc(Cl)cc3)nn2c1=O
Out: 171 to 172 °C

In: Record request: melting point value, item CC(C)CC(N)CC(=O)O (stereo unspecified)
Out: 249 to 250 °C
